# System: Human immunodeficiency virus 1
# Experimental Protocol: Antiviral activity against wild type HIV-1 IIIB infected in human MT4 cells assessed as protection against virus-induced cytopathic effect measured after 5 days by MTT assay
# Assay type: functional, organism-based
# Run Conditions: Human immunodeficiency virus 1, IIIB, MT4, 120 h
Property Name: EC50 (nM)
Express it in nM; write the number only.

Below are worked cases with known answers.
{"columns": ["Molecule", "EC50 / nM"],
 "data": [
  ["Cc1ccnc2c1NC(=O)c1cccnc1N2C1CC1 [NEVIRAPINE]", 100],
  ["Cc1cc(C#N)cc(C)c1Oc1nc(Nc2ccc(-c3cn(Cc4ccc(C(N)=O)cc4)nn3)cc2)nc2ccsc12", 30],
  ["Cc1cc(C#N)cc(C)c1Oc1nc(Nc2ccc(-c3cn(-c4ccc5c(c4)OCO5)nn3)cc2)nc2ccsc12", 1800]
]}

Here is the next item to consider.
EC50 in this record for "Cc1cc(C#N)cc(C)c1Oc1nc(Nc2ccc(-c3cn(CCN4C(=O)c5ccccc5C4=O)nn3)cc2)nc2ccsc12" : 1850

###

# Test System: Human immunodeficiency virus type 1 reverse transcriptase (Human immunodeficiency virus 1) (UniProt Q72547)
# Experimental Protocol: Inhibition of HIV-1 reverse transcriptase at 0.267 uM incubated for 1 hrs in presence of biotin-labeled dNTPs by ELISA assay relative to control
Entries and their inhibition
Express it in %; write the number only.

{"columns": ["Molecule", "inhibition [%]"],
 "data": [
  ["Cc1cc(C#N)cc(C)c1Oc1nc(Nc2ccc(-c3cn(-c4ccc(C(C)(C)C)cc4)nn3)cc2)nc2ccsc12", 23.9],
  ["Cc1cc(C#N)cc(C)c1Oc1nc(Nc2ccc(-c3cn(Cc4ccc(S(N)(=O)=O)cc4)nn3)cc2)nc2ccsc12", 46.3],
  ["Cc1cc(C#N)cc(C)c1Oc1nc(Nc2ccc(-c3cn(Cc4ccc(C(N)=O)cc4)nn3)cc2)nc2ccsc12", 39.5],
  ["Cc1cc(C#N)cc(C)c1Oc1nc(Nc2ccc(-c3cn(Cc4cccc(Cl)c4)nn3)cc2)nc2ccsc12", 28.4],
  ["Cc1cc(C#N)cc(C)c1Oc1nc(Nc2ccc(-c3cn(-c4cnc5ccccc5c4)nn3)cc2)nc2ccsc12", 20]
]}

inhibition in this record for "Cc1cc(C#N)cc(C)c1Oc1nc(Nc2ccc(-c3cn(-c4ccc(C(=O)O)cc4)nn3)cc2)nc2ccsc12" : 38.2

inhibition in this record for Cc1cc(C#N)cc(C)c1Oc1nc(Nc2ccc(C#N)cc2)nc(N)c1Br [ETRAVIRINE] : 56.4

###

# Test system: Human immunodeficiency virus 1
# Experimental Protocol: Antiviral activity against HIV-1 harboring RT RES056 mutant infected in human MT4 cells assessed as protection against virus-induced cytopathic effect measured after 5 days by MTT assay
# Assay type: functional, organism-based
# Run Conditions: Human immunodeficiency virus 1, MT4, 120 h
pEC50: −log10 of the molar value.
Entries and their pEC50

{"columns": ["Compound", "Reported Result"],
 "data": [
  ["Cc1cc(C#N)cc(C)c1Oc1nc(Nc2ccc(-c3cn(CCN4C(=O)c5ccccc5C4=O)nn3)cc2)nc2ccsc12", "< 3.69"],
  ["Cc1cc(C#N)cc(C)c1Oc1nc(Nc2ccc(-c3cn(Cc4ccc(S(C)(=O)=O)cc4)nn3)cc2)nc2ccsc12", "≤ 3.98"],
  ["Cc1cc(C#N)cc(C)c1Oc1nc(Nc2ccc(-c3cn(-c4ccc5c(c4)OCO5)nn3)cc2)nc2ccsc12", "< 3.65"],
  ["Cc1cc(C#N)cc(C)c1Oc1nc(Nc2ccc(-c3cn(S(=O)(=O)n4ccnc4)nn3)cc2)nc2ccsc12", "≤ 5.25"],
  ["Cc1cn([C@H]2C[C@H](N=[N+]=[N-])[C@@H](CO)O2)c(=O)[nH]c1=O [ZIDOVUDINE]", 7.52]
]}

pEC50 in this record for "Cc1cc(C#N)cc(C)c1Oc1nc(Nc2ccc(-c3cn(Cc4ccc(C(F)(F)F)cc4F)nn3)cc2)nc2ccsc12" : 4.46

pEC50 in this record for "Cc1cc(C#N)cc(C)c1Oc1nc(Nc2ccc(-c3cn(Cc4ccc(C(F)(F)F)cc4)nn3)cc2)nc2ccsc12" : 4.59

pEC50 in this record for "Cc1cc(C#N)cc(C)c1Oc1nc(Nc2ccc(-c3cn(-c4ccc(C(N)=O)cc4)nn3)cc2)nc2ccsc12" : < 3.79

pEC50 in this record for "Cc1cc(C#N)cc(C)c1Oc1nc(Nc2ccc(-c3cn(Cc4ccc(B(O)O)cc4)nn3)cc2)nc2ccsc12" : ≤ 5.26

###

# Tested on: Human immunodeficiency virus 1
# Experimental Protocol: Antiviral activity against HIV-1 harboring RT Y188L mutant infected in human MT4 cells assessed as protection against virus-induced cytopathic effect measured after 5 days by MTT assay
# Type: functional, organism-based
# Run Conditions: Human immunodeficiency virus 1, MT4, 120 h
Property Name: pEC50
Entry type: numeric. Quantity: pEC50, the -log10 of concentration in molar units.

Below are worked cases with known answers.
{"columns": ["Smiles Record", "Test System", "pEC50"],
 "data": [
  ["Cc1cc(C#N)cc(C)c1Oc1nc(Nc2ccc(-c3cn(-c4ccc5c(c4)OCO5)nn3)cc2)nc2ccsc12", "Human immunodeficiency virus 1", 3.78],
  ["Cc1cc(C#N)cc(C)c1Oc1nc(Nc2ccc(-c3cn(Cc4ccc(C(F)(F)F)cc4F)nn3)cc2)nc2ccsc12", "Human immunodeficiency virus 1", 4.73],
  ["Cc1cc(C#N)cc(C)c1Oc1nc(Nc2ccc(-c3cn(Cc4ccc(C(N)=O)cc4)nn3)cc2)nc2ccsc12", "Human immunodeficiency virus 1", 4.92]
]}

Entry "Cc1cc(C#N)cc(C)c1Oc1nc(Nc2ccc(-c3cn(Cc4ccc(B(O)O)cc4)nn3)cc2)nc2ccsc12" : pEC50 on Human immunodeficiency virus 1 = 5.50

###

# Tested on: Human immunodeficiency virus 1
# Experimental Protocol: Antiviral activity against HIV-1 harboring RT L100I mutant infected in human MT4 cells assessed as protection against virus-induced cytopathic effect measured after 5 days by MTT assay
# Assay type: functional, organism-based
# Run Conditions: Human immunodeficiency virus 1, MT4, 120 h
Entries and their EC50
Express it in nM; write the number only.

{"columns": ["Smiles Record", "Unit String", "EC50"],
 "data": [
  ["Cc1cc(C#N)cc(C)c1Oc1nc(Nc2ccc(-c3cn(Cc4ccc(S(C)(=O)=O)cc4)nn3)cc2)nc2ccsc12", "nM", 2160],
  ["Cc1cc(C#N)cc(C)c1Oc1nc(Nc2ccc(-c3cn(Cc4ccc(C(F)(F)F)cc4F)nn3)cc2)nc2ccsc12", "nM", 2360]
]}

Here is the next item to consider.
EC50 in this record for "Cc1cc(C#N)cc(C)c1Oc1nc(Nc2ccc(-c3cn(Cc4ccc(B(O)O)cc4)nn3)cc2)nc2ccsc12" : 2450

###

# Test System: Human immunodeficiency virus type 1 reverse transcriptase (Human immunodeficiency virus 1) (UniProt Q72547)
# Experimental Protocol: Inhibition of HIV-1 reverse transcriptase at 0.267 uM incubated for 1 hrs in presence of biotin-labeled dNTPs by ELISA assay relative to control
Quick rule for you: inhibition at 2% or higher means fulfilled, lower means not fulfilled.

Some entries whose results are on file:
{"columns": ["Smiles Record", "Discrete Label"],
 "data": [
  ["Cc1cc(C#N)cc(C)c1Oc1nc(Nc2ccc(-c3cn(CC(=O)N4CCOCC4)nn3)cc2)nc2ccsc12", "fulfilled"],
  ["Cc1cc(C#N)cc(C)c1Oc1nc(Nc2ccc(-c3cn(Cc4ccc5ccccc5c4)nn3)cc2)nc2ccsc12", "not fulfilled"]
]}

Let's switch to this compound now.
Decide: inhibition of "Cc1cc(C#N)cc(C)c1Oc1nc(Nc2ccc(-c3cn([C@H]4C[C@@H](n5cc(C)c(=O)[nH]c5=O)O[C@@H]4CO)nn3)cc2)nc2ccsc12" >= 2%?
fulfilled

###

# System: Human immunodeficiency virus 1
# Experimental Protocol: Antiviral activity against HIV-1 harboring RT RES056 mutant infected in human MT4 cells assessed as protection against virus-induced cytopathic effect measured after 5 days by MTT assay
# Format: functional, organism-based
# Run Conditions: Human immunodeficiency virus 1, MT4, 120 h
Property Name: EC50

Below are worked cases with known answers.
{"columns": ["Smiles Record", "EC50"],
 "data": [
  ["O=C1Nc2ccc(Cl)cc2[C@@](C#CC2CC2)(C(F)(F)F)O1", "0.43 µM"],
  ["Cc1ccnc2c1NC(=O)c1cccnc1N2C1CC1", "> 951 µM"]
]}

Here is the next item to consider.
EC50 in this record for "CCOC(=O)c1ccc(Cn2cc(-c3ccc(Nc4nc(Oc5c(C)cc(C#N)cc5C)c5sccc5n4)cc3)nn2)cc1" : > 208 µM

###

Entries and their EC50
# Tested on: Human immunodeficiency virus 1
# Experimental Protocol: Antiviral activity against HIV-1 harboring RT Y188L mutant infected in human MT4 cells assessed as protection against virus-induced cytopathic effect measured after 5 days by MTT assay
# Format: functional, organism-based
# Run Conditions: Human immunodeficiency virus 1, MT4, 120 h

Below are worked cases with known answers.
{"columns": ["Compound", "Property Name", "Reported Result"],
 "data": [
  ["Cc1cc(C#N)cc(C)c1Oc1nc(Nc2ccc(-c3cn(Cc4ccc(Cl)cc4)nn3)cc2)nc2ccsc12", "EC50", "> 222 µM"],
  ["Cc1ccnc2c1NC(=O)c1cccnc1N2C1CC1 [NEVIRAPINE]", "EC50", "> 951 µM"],
  ["Cc1cc(C#N)cc(C)c1Oc1nc(Nc2ccc(-c3cn(-c4ccc(C(N)=O)cc4)nn3)cc2)nc2ccsc12", "EC50", "> 164 µM"],
  ["CCOC(=O)c1ccc(Cn2cc(-c3ccc(Nc4nc(Oc5c(C)cc(C#N)cc5C)c5sccc5n4)cc3)nn2)cc1", "EC50", "> 208 µM"]
]}

EC50 in this record for "Cc1cc(C#N)cc(C)c1Oc1nc(Nc2ccc(-c3cn(CCN4C(=O)c5ccccc5C4=O)nn3)cc2)nc2ccsc12" : ≥ 157 µM
